- PROTOCOL TEXT: optical density change of DRC41 E. coli – strain DRC41, OD650, 24 h, E. coli filamentation project, primary screen (AID 1093);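 note: MC1000 strain lacking acrAB efflux and sulA so SOS filamentation is blocked; test concentration not given here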
- RUN PARAMETERS: E. coli DRC41 growth, higher = more signal, called active from +8 up or from −8 down
Activity calls are given as the source filed them.
For each entry below, report its z-score value.

Tell me z-score reported for O=C1O[C@H](c2ccccc2)[C@H](c2ccccc2)N2[C@H]1[C@@H](C(=O)NC[C@H](O)c1ccccc1)[C@]1(C(=O)Nc3ccc(C#CC4=CCCCC4)cc31)[C@H]2c1ccc(O)cc1
2 (inactive)

Tell me z-score reported for COCCCNC(=O)[C@@]1(Sc2ccc(C)cc2)CC(=O)N(Cc2ccccc2)[C@@H]1c1ccc(CO)cc1
-0.0977 (inactive)

Tell me z-score reported for C=C[C@H](OC)[C@@H](OC(=O)Nc1ccc(SC)cc1)c1ccc(OCCO)cc1
1.15 (inactive)

Tell me z-score reported for CN1C(=O)C2C=CC(C(O)c3ccccc3)N(NC(=O)OC(C)(C)C)C2C1=O (stereo not given)
-0.828 (inactive)

Tell me z-score reported for O=C1C2C=CC(C(O)c3ccc(-c4ccccc4)s3)N(Nc3ccccc3F)C2C(=O)N1c1ccccc1 (stereo not given)
-1.82 (inactive)

###

- STUDY SYSTEM: Epidermal growth factor receptor (Homo sapiens) (UniProt P00533)
- Sequence (P00533 whole entry, looked up): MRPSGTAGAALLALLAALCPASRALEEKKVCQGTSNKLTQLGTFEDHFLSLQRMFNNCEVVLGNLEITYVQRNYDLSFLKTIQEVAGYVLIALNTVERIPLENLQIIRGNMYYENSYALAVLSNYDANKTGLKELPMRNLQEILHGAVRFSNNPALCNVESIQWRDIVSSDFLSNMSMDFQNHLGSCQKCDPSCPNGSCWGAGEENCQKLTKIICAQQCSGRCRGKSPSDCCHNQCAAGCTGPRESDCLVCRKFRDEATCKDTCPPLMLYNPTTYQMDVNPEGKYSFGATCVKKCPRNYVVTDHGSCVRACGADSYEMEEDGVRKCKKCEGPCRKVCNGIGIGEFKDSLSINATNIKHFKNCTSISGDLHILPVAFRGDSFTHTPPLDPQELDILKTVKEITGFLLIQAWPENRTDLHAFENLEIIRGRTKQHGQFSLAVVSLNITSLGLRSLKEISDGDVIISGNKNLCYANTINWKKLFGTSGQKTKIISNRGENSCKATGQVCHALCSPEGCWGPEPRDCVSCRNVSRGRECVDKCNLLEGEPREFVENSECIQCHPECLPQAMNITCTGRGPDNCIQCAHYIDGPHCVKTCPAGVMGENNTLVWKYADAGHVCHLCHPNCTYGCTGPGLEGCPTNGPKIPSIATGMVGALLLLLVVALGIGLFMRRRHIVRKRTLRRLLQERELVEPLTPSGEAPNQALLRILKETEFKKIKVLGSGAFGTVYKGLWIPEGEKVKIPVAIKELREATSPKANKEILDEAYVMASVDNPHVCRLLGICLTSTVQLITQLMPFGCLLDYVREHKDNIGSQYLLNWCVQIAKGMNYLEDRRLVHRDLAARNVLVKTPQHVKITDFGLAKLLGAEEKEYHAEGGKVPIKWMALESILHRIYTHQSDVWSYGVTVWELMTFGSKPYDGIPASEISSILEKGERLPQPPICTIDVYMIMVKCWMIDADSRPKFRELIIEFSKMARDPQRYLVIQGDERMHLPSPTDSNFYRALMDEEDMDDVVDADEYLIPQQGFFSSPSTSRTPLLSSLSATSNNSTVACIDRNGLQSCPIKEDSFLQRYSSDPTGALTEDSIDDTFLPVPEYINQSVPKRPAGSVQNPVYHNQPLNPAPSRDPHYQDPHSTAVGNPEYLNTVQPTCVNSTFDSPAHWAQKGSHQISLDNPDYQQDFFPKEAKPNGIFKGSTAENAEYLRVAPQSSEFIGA
- PROTOCOL TEXT: compounds binding epidermal growth factor receptor – biochemical, small-molecule microarray, 635 nm fluorescence, primary screen (AID 1104);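 note: score merges 667 nm emission intensity with spot signal to noise over triplicate slides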
- RUN PARAMETERS: EGFR binding, higher = more signal
RECORDED ENDPOINT: composite z-score
Kindly provide the number alone.

Tell me composite z-score reported for CC(C)(C)OC(=O)CC[C@@]1(C(=O)NCC(O)CO)N=C(c2ccc(OCCCO)cc2)O[C@@H]1c1ccccc1 (some centres not stated)
-1.19

Tell me composite z-score reported for CN1C(=O)C2C(C1=O)C1C=C(c3ccc(CO)cc3)C2C(C2CC2)N1Cc1sc2ccccc2c1Cl (configuration not stated)
0.291

Tell me composite z-score reported for CC(C)OC(=O)C1=CCC(c2cccc(Cl)c2)O1 (configuration not stated)
-1.71

Tell me composite z-score reported for C=CCN1C(=O)[C@@]2(O[C@@H](CCO)[C@H]([Si](C)(C)c3ccc(OC)cc3)[C@H]2C)c2cc(N3C(=O)COc4ccccc43)ccc21
-0.289

Tell me composite z-score reported for COc1ccc([Si](C)(C)[C@H]2[C@H](CCO)O[C@@]3(C(=O)N(Cc4cccc(N5C(=O)c6cccc7cccc5c67)c4)c4ccccc43)[C@@H]2C)cc1
-0.437

Tell me composite z-score reported for CN(C)CCCC[C@@H]1NC(=O)[C@@H]2C[C@H](C(=O)NCCCCCCN)[C@H](c3ccc(O)cc3)N2C1=O
0.734

Tell me composite z-score reported for C[N+](C)(C)CCCC[C@@H]1NC(=O)[C@@H]2C[C@H](C(=O)NCCCCCCNC(=O)CS)[C@H](c3cccc(OCCO)c3)N2C1=O
-1.01

###

- STUDY SYSTEM: E3 ubiquitin-protein ligase XIAP (Homo sapiens) (UniProt P98170)
- Sequence (P98170 whole entry, looked up): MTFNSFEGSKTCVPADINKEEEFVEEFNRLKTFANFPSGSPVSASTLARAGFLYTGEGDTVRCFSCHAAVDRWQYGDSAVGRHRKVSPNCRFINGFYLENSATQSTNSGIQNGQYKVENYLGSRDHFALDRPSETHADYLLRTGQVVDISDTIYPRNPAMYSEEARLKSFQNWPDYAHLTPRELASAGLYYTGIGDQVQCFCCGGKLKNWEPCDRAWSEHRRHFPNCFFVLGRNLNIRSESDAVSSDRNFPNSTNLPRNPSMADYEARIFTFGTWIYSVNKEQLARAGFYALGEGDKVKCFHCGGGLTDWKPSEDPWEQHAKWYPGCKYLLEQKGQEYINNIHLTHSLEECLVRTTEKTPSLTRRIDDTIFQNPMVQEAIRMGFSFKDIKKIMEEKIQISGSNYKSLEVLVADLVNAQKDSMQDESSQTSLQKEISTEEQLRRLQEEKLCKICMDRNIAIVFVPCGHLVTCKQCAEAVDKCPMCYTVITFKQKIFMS
- PROTOCOL TEXT: small molecules binding XIAP protein – biophysical, small-molecule microarray, fluorescence 635 nm, primary screen (AID 1181);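 note: score merges 667 nm emission and signal to noise over triplicate slides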
- RUN PARAMETERS: higher = more signal
RECORDED ENDPOINT: composite z-score
Kindly provide the number alone.

Tell me composite z-score reported for CC(C)N1C(=O)c2ccccc2[C@](C)(C(=O)NCCCN(C)C)[C@@H]1c1ccc(CO)cc1
0.0871

Tell me composite z-score reported for COc1ccc(C(=O)Nc2cccc(CN3C(=O)[C@@]4(O[C@@H](CCn5cc([C@H](O)c6ccccc6)nn5)[C@H]([Si](C)(C)c5ccc(OC)cc5)[C@H]4C)c4ccccc43)c2)cc1
-0.0228

Tell me composite z-score reported for C=C[C@H](C)[C@H](O)c1ccc(OCCO)cc1
-0.115

Tell me composite z-score reported for O=C1OCC=C[C@H]2OC34C=CCN(CCN5CCOCC5)C(=O)[C@H]3N(CCCCCCO)C(=O)[C@@H]4[C@@H]12 (some centres undefined)
0.232
